# System: Staphylococcus aureus
# method.description: Antibacterial activity against methicillin resistant Staphylococcus aureus clinical isolate assessed as inhibition of bacterial growth incubated for 24 hrs
# Assay type: functional
The reader will find reported MIC values listed item by item below.
Your answer is read as µg/mL, so omit the unit and give the number.

given.smiles: Cc1ccc(Cn2cc(C(=O)O)c(=O)c3cc(F)c(CC#N)cc32)cc1
units.symbol: µg/mL
readout.value: 8

given.smiles: N#CCc1cc2c(cc1F)c(=O)c(C(=O)O)cn2Cc1cc(F)ccc1F
units.symbol: µg/mL
readout.value: 256

given.smiles: CCn1cc(C(=O)O)c(=O)c2cc(F)c(N3CCNCC3)cc21
units.symbol: µg/mL
readout.value: 8

Please examine the following record next.
Consider the compound "O=C(O)Cc1cc2c(cc1F)c(=O)c(C(=O)O)cn2Cc1ccccn1" and give its measured MIC. 128
